The following compounds are shown together with reported pIC50 values.
- system: HoblOBP4 (Holotrichia oblita, UniProt G9BWQ8)
- Sequence (G9BWQ8 entry or part of it): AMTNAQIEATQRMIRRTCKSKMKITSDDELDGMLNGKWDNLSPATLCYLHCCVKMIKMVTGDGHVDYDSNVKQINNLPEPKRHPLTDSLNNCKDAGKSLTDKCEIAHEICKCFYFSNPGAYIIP
- procedure details: biochemical
- Assay type: binding
Just so you know, pIC50 here is -log10 of the concentration in molar units; reply with that number alone.

{"compound": "CC/C=C\\CCO [cis-3-Hexen-1-ol]", "experimental endpoint": "pIC50", "result number": 4.77}

Would you mind telling me what pIC50 value was observed for CCC/C=C/CO [trans-2-Hexenol] ? 4.62

Next entry: CCC/C=C/C=O [trans-2-Hexenal] 4.96

Next entry: O=C/C=C/c1ccccc1 5.05

Next entry: CC1=CCC(O)(C(C)C)CC1 (stereo not drawn) 4.68

Next entry: CC(=O)/C=C/C1C(C)=CCCC1(C)C (stereo not drawn) 4.72

Next entry: CCCCCCC 4.80

Next entry: CCCCCC=O 4.82

Next entry: CCC/C=C\CO [cis-2-Hexen-1-ol] 4.85
